Hi there, I'd appreciate the recorded IC50 for every entry that follows.
Test system: MDA-MB-435
PROTOCOL DESCRIPTION: In vitro tumor cell proliferation, MDA-MB-435
Format: cell-based
DETAILS: MDA-MB-435; values given with an undefined *; trihydrochloride; read-out: In vitro Tumor Cell Proliferation (IC50, μM) Breast MDA-MB-435
Where a name gives a salt, the structure may show the parent alone.
Give bare numbers, in µM.

As a guide, the following entries are already answered.
- COMPOUND: "N[C@H]1CC[C@H](Nc2nc(NC3CCN(Cc4c(F)cccc4F)CC3)c3ncn(C4CCCC4)c3n2)CC1 [Example 147-v, trihydrochloride]"
  STUDY TARGET: "MDA-MB-435"
  IC50 (µM): 1.3
- COMPOUND: "N[C@H]1CC[C@H](Nc2nc(NC3CCN(Cc4ccc(Cl)c(Cl)c4)CC3)c3ncn(C4CCCC4)c3n2)CC1 [Example 147-o, trihydrochloride]"
  STUDY TARGET: "MDA-MB-435"
  IC50 (µM): 1.1

# context switch: different compound, same IC50
# input # returns recorded IC50 (system: MDA-MB-435) for N[C@H]1CC[C@H](Nc2nc(NCC3CCN(Cc4ccccc4)CC3)c3ncn(C4CCCC4)c3n2)CC1 [Example 147-ac, trihydrochloride]
# output 1.1
